FYI, the data here is from ChEMBL document CHEMBL4706613.

# system: Carbonic anhydrase 2 (Homo sapiens, UniProt P00918)
# procedure-details: Inhibition of human CA2 preincubated for 15 mins by phenol red dye based stopped flow CO2 hydration assay
pKi: −log10 of the molar value.
1 means recorded pKi is 7 or above; 0 means it is below 7.

Task: Dear colleague, could you confirm whether `C/C(=N\NC(=O)c1ccc(S(N)(=O)=O)cc1)c1cc2cc(Br)ccc2oc1=O` has pKi at or above 7?
Output: 1

Task: Evaluate `NS(=O)(=O)c1ccc(C(=O)N/N=C(\CS(=O)(=O)c2ccccc2)c2cc3ccccc3oc2=O)cc1` : pKi at minimum 7?
Output: 0

Task: Exam item: decide whether the reported pKi for `Cc1ccc(S(=O)(=O)C/C(=N\NC(=O)c2ccc(S(N)(=O)=O)cc2)c2cc3ccccc3oc2=O)cc1` is at least 7.
Output: 0

Task: Quick check, pKi >= 7? `C/C(=N\NC(=O)c1ccc(S(N)(=O)=O)cc1)c1cc2ccccc2oc1=O`
Output: 1

Task: Can `Cc1ccc(S(=O)(=O)C/C(=N\Nc2ccc(S(N)(=O)=O)cc2)c2cc3ccccc3oc2=O)cc1` be said to have pKi at or above 7?
Output: 0

Task: Say whether `Cc1ccc(S(=O)(=O)C/C(=N\Nc2ccc(S(N)(=O)=O)cc2)c2cc3cc(Br)ccc3oc2=O)cc1` shows pKi of 7 or more.
Output: 0

Task: Is the recorded value of pKi equal to or greater than 7 for this molecule? `NS(=O)(=O)c1ccc(N/N=C(\CS(=O)(=O)c2ccccc2)c2cc3ccccc3oc2=O)cc1`
Output: 0

Task: Determine whether measured pKi meets or exceeds 7 for `NS(=O)(=O)c1ccc(N/N=C(\CS(=O)(=O)c2ccccc2)c2cc3cc(Br)ccc3oc2=O)cc1`
Output: 0
